These data points were gathered from patent US7153858B2.

- System: α1
- measurement.notes: α1 cross-reactivity (% inhibition / Ki), Table 1
- Format: binding
observation.type: α1 % inhibition (%)
Numbers only, in %.

Please review the following examples before continuing.
smiles.record: CC(=O)Nc1cccc(N2CCN(CCCCNS(=O)(=O)c3ccc(F)cc3)CC2)c1
output.unit: %
α1 % inhibition: 39

smiles.record: CCCC(=O)Nc1cccc(N2CCN(CCCCNS(=O)(=O)c3ccc(C)cc3)CC2)c1
output.unit: %
α1 % inhibition: 12

smiles.record: Cc1ccc(S(=O)(=O)NCCCCN2CCN(c3cccc(NC(=O)C(C)(C)C)c3)CC2)cc1
output.unit: %
α1 % inhibition: 0

smiles.record: CC(=O)Nc1cccc(N2CCN(CCCCNS(=O)(=O)CC(C)C)CC2)c1
output.unit: %
α1 % inhibition: 5

smiles.record: CC(=O)Nc1cccc(N2CCNCC2)c1.Cl
output.unit: %
α1 % inhibition: 0

Batch: α1 % inhibition for all items listed.
1. Cc1ccc(S(=O)(=O)NCCCCN2CCN(c3ccccc3)CC2)cc1
2. O=S(=O)(CC1CCCCC1)NCCCCN1CCN(c2ccccn2)CC1

1: 98; 2: 81

###

- assay.system: 5-HT1A (Homo sapiens, UniProt P08908)
- Sequence (P08908 whole entry, species assumed): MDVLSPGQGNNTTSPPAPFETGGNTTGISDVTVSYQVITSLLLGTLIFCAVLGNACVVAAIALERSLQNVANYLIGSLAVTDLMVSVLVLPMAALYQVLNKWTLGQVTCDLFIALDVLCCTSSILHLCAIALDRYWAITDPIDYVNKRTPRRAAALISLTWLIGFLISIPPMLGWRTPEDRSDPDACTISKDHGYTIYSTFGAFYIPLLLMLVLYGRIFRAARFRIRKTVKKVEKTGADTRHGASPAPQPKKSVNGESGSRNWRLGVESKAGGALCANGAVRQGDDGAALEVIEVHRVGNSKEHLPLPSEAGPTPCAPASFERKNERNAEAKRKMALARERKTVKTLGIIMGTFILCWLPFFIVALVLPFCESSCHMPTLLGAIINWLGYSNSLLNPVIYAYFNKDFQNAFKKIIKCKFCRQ
- measurement.notes: 5-HT1A receptor affinity (Ki), Table 1
- Assay type: binding
- run.parameters: read-out: 5-HT1A (Ki)
Record form. Attribute: pKi. Fill in for each entry.
One number for each entry, as −log10 of the molar value.

smiles.record: CCCC(=O)Nc1cccc(N2CCN(CCCCNS(=O)(=O)c3ccc(C)cc3)CC2)c1
assay.system: 5-HT1A (Homo sapiens, UniProt P08908)
pKi: 7.25

Batch: pKi for all items listed.
1. O=C(Nc1cccc(N2CCN(CCCCNS(=O)(=O)CC3CCCCC3)CC2)c1)C1CC1
2. CC(=O)Nc1cccc(N2CCN(CCCCN(C)S(=O)(=O)CC3CCCCC3)CC2)c1
3. CC(=O)Nc1cccc(N2CCN(CCCCNS(=O)(=O)C3CCCCC3)CC2)c1

[8.05, 8.89, 7.40]

###

- Test system: α2
- measurement.notes: α2 cross-reactivity (% inhibition / Ki), Table 1
- Type: binding
Record form. Attribute: α2 % inhibition. Fill in for each entry.
Numbers only, in %.

Please review the following examples before continuing.
smiles.record: Cc1ccc(S(=O)(=O)NCCCCN2CCN(c3ccccc3)CC2)cc1
assay.system: α2
α2 % inhibition / %: 90
--
smiles.record: CN(C)c1cccc(N2CCN(CCCCNS(=O)(=O)CC3CCCCC3)CC2)c1
assay.system: α2
α2 % inhibition / %: 25
--
smiles.record: CCS(=O)(=O)Nc1cccc(N2CCN(CCCCNS(=O)(=O)c3ccc(C)cc3)CC2)c1
assay.system: α2
α2 % inhibition / %: 14

Then there is this compound:
Report value: α2 % inhibition, system: α2, compound: `CC(=O)Nc1cccc(N2CCN(CCCCN(C)S(=O)(=O)CC3CCCCC3)CC2)c1`
47

###

- Test system: α2
- measurement.notes: α2 cross-reactivity (% inhibition / Ki), Table 1
- Assay type: binding
observation.type: α2 % inhibition (%)
One number for each entry, in %.

Please review the following examples before continuing.
smiles.record: CC(=O)Nc1cccc(N2CCN(CCCCNS(=O)(=O)C(C)C)CC2)c1
observation.type: α2 % inhibition
recorded.number: 12

smiles.record: CCCC(=O)Nc1cccc(N2CCN(CCCCNS(=O)(=O)c3ccc(C)cc3)CC2)c1
observation.type: α2 % inhibition
recorded.number: 12

smiles.record: Cc1ccc(S(=O)(=O)NCCCCN2CCN(c3cccc(NC(=O)C(C)(C)C)c3)CC2)cc1
observation.type: α2 % inhibition
recorded.number: 11

smiles.record: CC(=O)Nc1cccc(N2CCN(CCCCNS(=O)(=O)CC(C)C)CC2)c1
observation.type: α2 % inhibition
recorded.number: 0

Specify α2 % inhibition for `Cc1ccc(S(=O)(=O)NCCCCN2CCN(c3cccc(NS(C)(=O)=O)c3)CC2)cc1` and stop.
21

###

- assay.system: 5-HT1A (Homo sapiens, UniProt P08908)
- measurement.notes: 5-HT1A receptor affinity (Ki), Table 1
- Format: binding
- run.parameters: read-out: 5-HT1A (Ki)
Classes based on Ki: LOW = under 20 nM, MID = from 20 nM up to 100 nM, HIGH = 100 nM and over

Use the examples below as a reference point.
compound: CCS(=O)(=O)Nc1cccc(N2CCN(CCCCNS(=O)(=O)c3ccc(C)cc3)CC2)c1
assigned.category: HIGH

compound: CN(C)c1cccc(N2CCN(CC3CCN(S(=O)(=O)c4ccc(F)cc4)CC3)CC2)c1
assigned.category: HIGH

compound: Cc1ccc(S(=O)(=O)NCCCCN2CCN(c3cccc(NS(=O)(=O)C(C)C)c3)CC2)cc1
assigned.category: MID

compound: Cc1ccc(S(=O)(=O)NCCCCN2CCN(c3ccccc3)CC2)cc1
assigned.category: MID

compound: CN(C)c1cccc(N2CCN(CCCCNS(=O)(=O)CC3CCCCC3)CC2)c1
assigned.category: HIGH

Attention now turns to another entry.
Which class holds `Cc1ccc(S(=O)(=O)NCCCCN2CCN(c3cccc(NC(=O)C(C)C)c3)CC2)cc1` ?
MID

###

Record form. Attribute: α2 % inhibition. Fill in for each entry.
- Test system: α2
- measurement.notes: α2 cross-reactivity (% inhibition / Ki), Table 1
- Format: binding

smiles.record: Cc1ccc(S(=O)(=O)NCCCCN2CCN(c3cccc(NS(=O)(=O)C(C)C)c3)CC2)cc1
assay.system: α2
α2 % inhibition: <10%

smiles.record: CC(=O)Nc1cccc(N2CCN(CCCCNS(=O)(=O)CC3CCCCC3)CC2)c1
assay.system: α2
α2 % inhibition: <10%

Then there is this compound:
Specify α2 % inhibition for `CC(=O)Nc1cccc(N2CCN(CC3CCN(S(=O)(=O)c4ccc(F)cc4)CC3)CC2)c1` and stop.
<10%

###

- assay.system: 5-HT1A (Homo sapiens)
- measurement.notes: 5-HT1A receptor affinity (Ki), Table 1
- Type: binding
- run.parameters: read-out: 5-HT1A (Ki)
observation.type: Ki

Please review the following examples before continuing.
molecule: CC(=O)Nc1cccc(N2CCN(CC3CCN(S(=O)(=O)c4ccc(F)cc4)CC3)CC2)c1
Ki: 13 nM

molecule: CCC(=O)Nc1cccc(N2CCN(CCCCNS(=O)(=O)c3ccc(C)cc3)CC2)c1
Ki: 213 nM

molecule: CC(=O)Nc1cccc(N2CCN(CC3CCN(S(=O)(=O)C(C)C)CC3)CC2)c1
Ki: 112 nM

molecule: O=S(=O)(CC1CCCCC1)NCCCCN1CCN(c2ccccn2)CC1
Ki: 6.5 nM

molecule: CC(=O)Nc1cccc(N2CCN(CCCCNS(=O)(=O)CC3CCCCC3)CC2)c1
Ki: 5.1 to 11 nM

Batch: Ki for all items listed.
1. O=S(=O)(c1ccc(F)cc1)N1CCC(CN2CCN(c3ccccn3)CC2)CC1
2. Cc1ccc(S(=O)(=O)NCCCCN2CCN(c3cccc([N+](=O)[O-])c3)CC2)cc1

["21 nM", "125 nM"]

###

- assay.system: 5-HT1A (Homo sapiens)
- measurement.notes: 5-HT1A receptor affinity (Ki), Table 1
- Format: binding
- run.parameters: read-out: 5-HT1A (Ki)
Structures can show the parent of a compound that is named as a salt.
Record form. Attribute: Ki. Fill in for each entry.
Numbers only, in nM.

Please review the following examples before continuing.
compound: Cc1ccc(S(=O)(=O)NCCCCN2CCN(c3cccc([N+](=O)[O-])c3)CC2)cc1 [HCl salt]
Ki [nM]: 105
//
compound: CC(=O)Nc1cccc(N2CCN(CC3CCN(S(=O)(=O)CC4CCCCC4)CC3)CC2)c1
Ki [nM]: 10
//
compound: Cc1ccc(S(=O)(=O)NCCCCN2CCN(c3cccc(NS(C)(=O)=O)c3)CC2)cc1
Ki [nM]: 46
//
compound: CC(=O)Nc1cccc(N2CCN(CCCCNS(=O)(=O)c3ccc(F)cc3)CC2)c1
Ki [nM]: 18

Batch: Ki for all items listed.
1. CC(=O)Nc1cccc(N2CCN(CCCCNS(=O)(=O)C(C)C)CC2)c1
2. CC(=O)Nc1cccc(N2CCN(CCCCNS(=O)(=O)CC(C)C)CC2)c1
3. Cc1ccc(S(=O)(=O)NCCCCN2CCN(c3cccc(NC(=O)C4CC4)c3)CC2)cc1

24
11
21
